// reported Ki for each item listed
molecular target: Peroxisome proliferator-activated receptor gamma (Homo sapiens, UniProt P37231); assay: Displacement of [3H]rosiglitazone from human PPARgamma receptor
Sequence (P37231 whole entry): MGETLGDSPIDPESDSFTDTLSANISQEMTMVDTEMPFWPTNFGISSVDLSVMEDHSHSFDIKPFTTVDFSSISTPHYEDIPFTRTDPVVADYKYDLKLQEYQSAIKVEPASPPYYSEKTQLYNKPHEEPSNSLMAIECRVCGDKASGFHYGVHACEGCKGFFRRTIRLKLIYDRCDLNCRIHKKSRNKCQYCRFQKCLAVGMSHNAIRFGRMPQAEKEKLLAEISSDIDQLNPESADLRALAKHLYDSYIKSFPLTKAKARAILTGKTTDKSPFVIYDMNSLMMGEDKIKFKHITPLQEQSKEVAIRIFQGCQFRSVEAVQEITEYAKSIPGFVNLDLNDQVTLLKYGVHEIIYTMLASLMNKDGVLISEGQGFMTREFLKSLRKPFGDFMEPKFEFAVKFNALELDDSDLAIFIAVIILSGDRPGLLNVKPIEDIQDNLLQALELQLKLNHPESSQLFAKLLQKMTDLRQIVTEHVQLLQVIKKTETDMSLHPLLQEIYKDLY
Write down the numeric answer in nM and omit the unit.

C=CCO/N=C(\c1ccccc1)c1ccc2c(c1)C(C)(C)CCN2CCOc1ccc(C[C@H](OCC)C(=O)O)cc1 | 54.2

For the next question, use this compound.
Ask: For the compound CCO[C@@H](Cc1ccc(OCCN2CCC(C)(C)c3cc(/C(=N/OCc4ccccc4)c4ccccc4)ccc32)cc1)C(=O)O , give its reported Ki.
Reply: 18.4

----------
tested on: Caco-2; assay: Absorption in human Caco-2 cells; assay type: ADME, cell-based; design: concentration or dose not given beside the values
The following molecules are shown together with reported Activity values.
State the answer as a number, implicitly in %.

CO/N=C(\c1ccccc1)c1ccc2c(c1)C(C)(C)CCN2CCOc1ccc(C[C@H](OCC(F)(F)F)C(=O)O)cc1 | 100

// moving on: another record for Activity
Ask: Tell me its Activity given CO/N=C(\c1ccccc1)c1ccc2c(c1)C(C)(C)CCN2CCOc1ccc(C[C@H](Nc2ccccc2C(=O)c2ccccc2)C(=O)O)cc1 as the entry.
Reply: 22
